Test system: IAV (A/H3N2)
experiment-notes: CPE reduction assay, influenza A/H3N2 in MDCK cells
Format: cell-based, influenza A virus A/H3N2 (A/Victoria/361/11 or A/HK/7/87)
particulars: Influenza A virus, H3N2, 72 h, microscopic scoring of cytopathic effect, day 3, read-out: Antiviral EC50, IAV (A/H3N2), CPE
Each entry below carries its reported EC50.

{"columns": ["molecule", "EC50"],
 "data": [
  ["CCCCCCCCCCOC1C(OC)OC(COCCOCCOCCOCCn2cc(CSC3(C(=O)O)CC(O)C(NC(C)=O)C(C(O)C(O)CO)O3)nn2)C(OCc2ccc(OC)cc2)C1OCCCCCCCCCC (stereo not shown) [Compound 12a]", "> 100 µM"],
  ["CC(=O)N[C@H]1[C@H]([C@H](O)[C@H](O)CO)OC(C(=O)O)=C[C@@H]1N=C(N)N [Zanamivir, reference compound]", "1.6 µM"],
  ["CCCCCCCCCCOCC1OC(CCCSC2(C(=O)O)CC(O)C(NC(C)=O)C(C(O)C(O)CO)O2)C=CC1OCCCCCCCCCC (stereo not shown) [Compound 18a]", "> 100 µM"],
  ["CCCCCCOCC1OC(CCCSC2(C(=O)O)CC(O)C(NC(C)=O)C(C(O)C(O)CO)O2)C=CC1OCCCCCC (stereo not shown) [Compound 18c]", "> 100 µM"]
]}

* * *

study-system: H3N2 Hemagglutinin (Influenza A virus)
experiment-notes: SPR affinity toward immobilized H3N2 hemagglutinin
Assay type: binding, influenza type H3N2 (A/Aichi/2/1968)
particulars: KD(app), H3N2 Hemagglutinin, PBST with 5% DMSO, 25 °C, steady-state single-site fit

{"columns": ["compound", "Kd / µM"],
 "data": [
  ["CCCCCCCCOC1C(OC)OC(COCCOCCOCCOCCn2cc(CSC3(C(=O)O)CC(O)C(NC(C)=O)C(C(O)C(O)CO)O3)nn2)C(OCc2ccc(OC)cc2)C1OCCCCCCCC (centres unmarked) [Compound 12b]", 124],
  ["CCCCCCCCOCC1OC(OCCOCCOCCOCCOCCCSC2(C(=O)O)CC(O)C(NC(C)=O)C(C(O)C(O)CO)O2)C=CC1OCCCCCCCC (centres unmarked) [Compound 23a]", 1220]
]}

* * *

Each entry below carries its reported Cytotoxicity MCC (minimum cytotoxic concentration).
Test system: Madin-Darby canine kidney (MDCK) cells
particulars: dog, 3 days
Marks after values point to notes of the source that are not given here.
parameter-measured: Cytotoxicity MCC (minimum cytotoxic concentration)

{"columns": ["compound", "test-value"],
 "data": [
  ["CCCCCCCCOCC1OC(CCCSC2(C(=O)O)CC(O)C(NC(C)=O)C(C(O)C(O)CO)O2)C=CC1OCCCCCCCC (centres unmarked) [Compound 18b]", "63 ± 19 µM"],
  ["CCCCCCCCOCC1OC(OCCOCCOCCOCCOCCCSC2(C(=O)O)CC(O)C(NC(C)=O)C(C(O)C(O)CO)O2)C=CC1OCCCCCCCC (centres unmarked) [Compound 23a]", "40 ^d µM"],
  ["CCCCOC1C(OC)OC(COCCOCCOCCOCCn2cc(CSC3(C(=O)O)CC(O)C(NC(C)=O)C(C(O)C(O)CO)O3)nn2)C(OCc2ccc(OC)cc2)C1OCCCC (centres unmarked) [Compound 12c]", "100 ± 0 µM"],
  ["CCCCCCOCC1OC(OCCOCCOCCOCCOCCCSC2(C(=O)O)CC(O)C(NC(C)=O)C(C(O)C(O)CO)O2)C=CC1OCCCCCC (centres unmarked) [Compound 23b]", ">100 µM"],
  ["CCCCCCCCOC1C(OC)OC(COCCOCCOCCOCCn2cc(CSC3(C(=O)O)CC(O)C(NC(C)=O)C(C(O)C(O)CO)O3)nn2)C(OCc2ccc(OC)cc2)C1OCCCCCCCC (centres unmarked) [Compound 12b]", "39 ± 20 µM"],
  ["CCCCCCCCCCOC1C(OC)OC(COCCOCCOCCOCCn2cc(CSC3(C(=O)O)CC(O)C(NC(C)=O)C(C(O)C(O)CO)O3)nn2)C(OCc2ccc(OC)cc2)C1OCCCCCCCCCC (centres unmarked) [Compound 12a]", "20 ^d µM"],
  ["CCCCCCOCC1OC(CCCSC2(C(=O)O)CC(O)C(NC(C)=O)C(C(O)C(O)CO)O2)C=CC1OCCCCCC (centres unmarked) [Compound 18c]", "100 ^d µM"],
  ["CCCCCCCCCCOCC1OC(CCCSC2(C(=O)O)CC(O)C(NC(C)=O)C(C(O)C(O)CO)O2)C=CC1OCCCCCCCCCC (centres unmarked) [Compound 18a]", "20 ^d µM"]
]}

Reference source for all entries: paper PMC10743929
